B1: ZBTB22 (parent)
chain: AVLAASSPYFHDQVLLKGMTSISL

Variants of: B1
assay: protein stability index of a GFP-peptide fusion (GPS, HEK-293T) (PSI 1-6); higher = more stable;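 note: lentivirally expressed fusions sorted by FACS into six bins by GFP to DsRed ratio, PSI derived from sequencing read proportions per bin multiplied by bin number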
condition_summary: c terminus: a fixed tail appended
Categories are assigned from the measured protein stability index using these intervals: range 1: < 2; range 2: ≥ 2 and < 3; range 3: ≥ 3

sequence_input=AVLAASSPYFHAQVLLKGMTSISL answer_label="range 2"
sequence_input=AVNAASSPYFHDQVLLKGMTSISL answer_label="range 2"
sequence_input=AVLAASYPYFHDQVLLKGMTSISL answer_label="range 1"
sequence_input=AVLAASHPYFHDQVLLKGMTSISL answer_label="range 2"
sequence_input=AVLAASSPYFHDQVLLKGMTSISQ answer_label="range 1"
sequence_input=AVPAASSPYFHDQVLLKGMTSISL answer_label="range 3"
sequence_input=AVLAASSPYFHDQVLLKGSTSISL answer_label="range 2"
sequence_input=AVLAASSPYFHDQVLLKGMTSIPL answer_label="range 3"
sequence_input=AVLAASSPYFHDQELLKGMTSISL answer_label="range 2"
sequence_input=EVLAASSPYFHDQVLLKGMTSISL answer_label="range 3"
sequence_input=AELAASSPYFHDQVLLKGMTSISL answer_label="range 1"
sequence_input=AVLAASSPYHHDQVLLKGMTSISL answer_label="range 2"
sequence_input=AVLAASSPYFSDQVLLKGMTSISL answer_label="range 2"
sequence_input=AVLAASSPYFHDQVLLKGMTSISF answer_label="range 3"
sequence_input=AVLAASSPYFHDQVLLKYMTSISL answer_label="range 3"
sequence_input=AVLAASSPYFHDQVLLKGMTSYSL answer_label="range 3"
sequence_input=AVLAASSPYFHDQVLLKGMTSPSL answer_label="range 1"
sequence_input=AVLAASSPYFHDQVLMKGMTSISL answer_label="range 3"
sequence_input=AVLAASSPYFTDQVLLKGMTSISL answer_label="range 3"
sequence_input=AVLAASSIYFHDQVLLKGMTSISL answer_label="range 2"
sequence_input=AVLAASSPYFHDQVLLKSMTSISL answer_label="range 3"
sequence_input=AVLHASSPYFHDQVLLKGMTSISL answer_label="range 3"
sequence_input=AVLAASSPYFHDQVLLKGMTSGSL answer_label="range 2"
sequence_input=AVLAASSPYKHDQVLLKGMTSISL answer_label="range 1"
sequence_input=AVLAASSPYFHDQALLKGMTSISL answer_label="range 2"
sequence_input=AVLAASSPYFHDQVLSKGMTSISL answer_label="range 2"
sequence_input=AVLSASSPYFHDQVLLKGMTSISL answer_label="range 1"
sequence_input=AVAAASSPYFHDQVLLKGMTSISL answer_label="range 2"
sequence_input=AVLAASSPYCHDQVLLKGMTSISL answer_label="range 2"
sequence_input=AVLAASSPYFHDQVLLKGLTSISL answer_label="range 2"
sequence_input=AVLAASSPIFHDQVLLKGMTSISL answer_label="range 3"
sequence_input=AVLAASSPYFHDQVLLKGMTSNSL answer_label="range 1"
sequence_input=AVLAKSSPYFHDQVLLKGMTSISL answer_label="range 3"
sequence_input=AVHAASSPYFHDQVLLKGMTSISL answer_label="range 2"
sequence_input=AVLAASSPYFHDQVELKGMTSISL answer_label="range 1"
sequence_input=AVLAASSPYFHDQVLLKGWTSISL answer_label="range 1"
sequence_input=AVLAASSPYNHDQVLLKGMTSISL answer_label="range 1"
sequence_input=AVLAASSPYFHDQVLLKGGTSISL answer_label="range 1"
sequence_input=AVLAESSPYFHDQVLLKGMTSISL answer_label="range 1"
sequence_input=AVLAYSSPYFHDQVLLKGMTSISL answer_label="range 2"
sequence_input=AVLAASSPYFHDQVLLKGMESISL answer_label="range 2"
sequence_input=AVLAASSPYFHDQVNLKGMTSISL answer_label="range 2"
sequence_input=AVLAAGSPYFHDQVLLKGMTSISL answer_label="range 2"
sequence_input=AVLAASSPYFHDQVLGKGMTSISL answer_label="range 2"
sequence_input=AVLAASSPYFHDQYLLKGMTSISL answer_label="range 2"
sequence_input=AVLAASSPYFHDQVDLKGMTSISL answer_label="range 2"
sequence_input=AVLAASSPYFHDQVGLKGMTSISL answer_label="range 3"
sequence_input=ANLAASSPYFHDQVLLKGMTSISL answer_label="range 1"
sequence_input=ACLAASSPYFHDQVLLKGMTSISL answer_label="range 1"
sequence_input=AVLAASSPYFHDQVLLKGMTSISP answer_label="range 1"
sequence_input=AVLAASSPYFHDQVLLKGQTSISL answer_label="range 1"
sequence_input=AVLAASSPYFHDQVLLKEMTSISL answer_label="range 1"
sequence_input=AVLAASSPDFHDQVLLKGMTSISL answer_label="range 2"
sequence_input=AVLAASSPYFHDQVLLKGMTSIHL answer_label="range 2"
sequence_input=AVLAASSPYFHDQVLLKGMTSCSL answer_label="range 1"
sequence_input=AVLAASSPYFHDQVLLKGMTSISA answer_label="range 1"
sequence_input=AVLAAPSPYFHDQVLLKGMTSISL answer_label="range 2"
sequence_input=AVLAASSPYFHDLVLLKGMTSISL answer_label="range 1"
sequence_input=AVLAASSPYFHDQVLLKGMQSISL answer_label="range 2"
sequence_input=AVLAATSPYFHDQVLLKGMTSISL answer_label="range 2"
sequence_input=AVLAASSPYFIDQVLLKGMTSISL answer_label="range 1"
sequence_input=HVLAASSPYFHDQVLLKGMTSISL answer_label="range 3"
sequence_input=AVLAASSPYFHDQVLLKGMTSASL answer_label="range 3"
sequence_input=AVLAASSPYFHYQVLLKGMTSISL answer_label="range 3"
sequence_input=AVLAASSPYEHDQVLLKGMTSISL answer_label="range 1"
sequence_input=AVLAASSPYFHDQVLLKGMTCISL answer_label="range 3"
sequence_input=AVLAASSPYFLDQVLLKGMTSISL answer_label="range 1"
sequence_input=AVLAASSPYPHDQVLLKGMTSISL answer_label="range 1"
sequence_input=AVLAASIPYFHDQVLLKGMTSISL answer_label="range 3"
sequence_input=AVLAASSPYFHDGVLLKGMTSISL answer_label="range 2"
sequence_input=AVLASSSPYFHDQVLLKGMTSISL answer_label="range 2"
sequence_input=AVLAASSPYFHDDVLLKGMTSISL answer_label="range 3"
sequence_input=AVTAASSPYFHDQVLLKGMTSISL answer_label="range 2"
sequence_input=AVLAARSPYFHDQVLLKGMTSISL answer_label="range 1"
sequence_input=AVLAASSPYFHDQMLLKGMTSISL answer_label="range 2"
sequence_input=AVSAASSPYFHDQVLLKGMTSISL answer_label="range 1"
sequence_input=AVLAASSPYFHDQVLLKGMKSISL answer_label="range 2"
sequence_input=AVKAASSPYFHDQVLLKGMTSISL answer_label="range 1"
sequence_input=AVLAASSPYFHDQVLLKGMTSTSL answer_label="range 2"
sequence_input=NVLAASSPYFHDQVLLKGMTSISL answer_label="range 2"
sequence_input=AVLAASSPYFHDQVCLKGMTSISL answer_label="range 1"
